- ASSAY: Tmax in Sprague-Dawley rat at 2.5 mg/kg, iv
- Assay type: ADME, organism-based
- Set-up: dose 2.5 mg/kg, route intravenous
- CONDITION_LABEL: in vivo
QUANTITY_KIND: Tmax (min)

• N#Cc1c(N2CCC(c3ccccc3)CC2)ccn(CC2CC2)c1=O = 30
• CC(C)Cn1ccc(N2CCC(c3ccccc3)CC2)c(Cl)c1=O = 42
• CCCCn1ccc(N2CCC(c3ccccc3)CC2)c(Cl)c1=O [JNJ-40411813] = 30
• O=c1c(Cl)c(N2CCC(c3ccccc3)CC2)ccn1CC1CC1 = 30

###

- ASSAY: Volume of distribution at steady state in Sprague-Dawley rat at 2.5 mg/kg, iv
- Type: ADME, organism-based
- Set-up: dose 2.5 mg/kg, route intravenous
- CONDITION_LABEL: in vivo, read-out: Vdss
QUANTITY_KIND: Vd (L/kg)
# number only, unit L/kg dropped from output

Ask | Look up and state reported Vd for CCCCn1ccc(N2CCC(c3ccccc3)CC2)c(Cl)c1=O
Reply | 2.3

###

- ASSAY: Elimination half life in Sprague-Dawley rat at 2.5 mg/kg, iv
- Type: ADME, organism-based
- Design: dose 2.5 mg/kg, route intravenous
- CONDITION_LABEL: in vivo, read-out: beta t1/2 (converted)
QUANTITY_KIND: half-life (h)

Consider the reported half-life for these compounds:
- CCCCn1ccc(N2CCC(c3ccccc3)CC2)c(Cl)c1=O: 2.3
- CC(C)Cn1ccc(N2CCC(c3ccccc3)CC2)c(Cl)c1=O: 2.6

P: N#Cc1c(N2CCC(c3ccccc3)CC2)ccn(CC2CC2)c1=O
Q: O=c1c(Cl)c(N2CCC(c3ccccc3)CC2)ccn1CC1CC1
Ask | Given P and given Q , which shows the smaller recorded half-life? Reply with the label of the item you choose.
Reply | P
(P: 2.1 h, Q: 3.5 h)

###

- ASSAY: Volume of distribution at steady state in dog at 1 mg/kg, iv
- Assay type: ADME, organism-based, Canis lupus familiaris
- Design: dose 1 mg/kg, route intravenous
- CONDITION_LABEL: in vivo, read-out: Vdss
QUANTITY_KIND: Vd (L/kg)
Number only, in L/kg; omit the unit.

Ask | Specify measured Vd for CCCCn1ccc(N2CCC(c3ccccc3)CC2)c(Cl)c1=O [JNJ-40411813] .
Reply | 1.8

###

- ASSAY: Elimination half life in dog at 1 mg/kg, iv
- Assay type: ADME, organism-based, Canis lupus familiaris
- Parameters: dose 1 mg/kg, route intravenous
- CONDITION_LABEL: in vivo, read-out: beta t1/2 (converted)
QUANTITY_KIND: half-life (h)
Please respond with the number in h and leave the unit unwritten.

Ask | Recall and state the measured half-life for CCCCn1ccc(N2CCC(c3ccccc3)CC2)c(Cl)c1=O .
Reply | 3.7

###

- ASSAY: Metabolic stability in human liver microsomes assessed as compound metabolized at 5 uM after 15 mins by MS/MS analysis in presence of NADPH
- Type: ADME
- CONDITION_LABEL: read-out: Drug metabolism
QUANTITY_KIND: metabolised at 0.25 h, 5 µM (%)

Reference set (3 entries):
* N#Cc1c(N2CCC(c3c(F)cccc3F)CC2)ccn(CC2CC2)c1=O | 18
* N#Cc1c(N2CCC(c3ccccc3)CC2)ccn(CC2CC2)c1=O | 25
* CC(C)CCn1ccc(N(C)Cc2ccccc2)c(C#N)c1=O | 69

1: CC(C)CCn1ccc(N2CCN(c3ccccn3)CC2)c(C#N)c1=O
2: N#Cc1c(N2CCC(c3ccccc3F)CC2)ccn(CC2CC2)c1=O
3: COc1ccc(C2CCN(c3ccn(CC4CC4)c(=O)c3C#N)CC2)cc1
4: N#Cc1c(N2CCC(c3ccccc3)CC2)ccn(CCCC(F)(F)F)c1=O
Ask | Write the entries in order, lowest recorded metabolised at 0.25 h, 5 µM first. Enter labels, ranked according to the request.
Reply | 4, 2, 1, 3
(4: 18%, 2: 30%, 1: 51%, 3: 76%)

1: N#Cc1c(N2CCC(c3ccc(Cl)cc3)CC2)ccn(CC2CC2)c1=O
2: CC(C)CCn1ccc(N2CCN(c3ccccc3)CC2)c(C#N)c1=O
Ask | Which value of metabolised at 0.25 h, 5 µM is smaller, the one for 1 or the one for 2 ? The response must carry the label of the picked entry.
Reply | 1

1: CCCCn1ccc(N2CCC(c3ccccc3)CC2)c(Cl)c1=O [JNJ-40411813]
2: COc1ccccc1C1CCN(c2ccn(CC3CC3)c(=O)c2C#N)CC1
Ask | Problem: Given the entries 1 and 2 , determine which has the lower reported metabolised at 0.25 h, 5 µM. Indicate your choice by writing its label.
Reply | 1

I: CC(C)CCn1ccc(OCc2ccccc2)c(C#N)c1=O
II: N#Cc1c(N2CCC(c3ccccc3)CC2)ccn(CCC2CC2)c1=O
III: CC(C)CCn1ccc(N2CCc3ccccc3C2)c(C#N)c1=O
IV: O=c1c(C(F)(F)F)c(N2CCC(c3ccccc3)CC2)ccn1CC1CC1
Ask | Task for the reader: rank each entry by its metabolised at 0.25 h, 5 µM, from the minimum upward. Kindly provide the labels arranged according to the requested ordering.
Reply | I, IV, II, III

###

- ASSAY: Metabolic stability in rat liver microsomes assessed as compound metabolized at 5 uM after 15 mins by MS/MS analysis in presence of NADPH
- Assay type: ADME
- CONDITION_LABEL: read-out: Drug metabolism
QUANTITY_KIND: metabolised at 0.25 h, 5 µM (%)

Below: 9 molecules and their reported metabolised at 0.25 h, 5 µM.
• N#Cc1c(N2CCC(c3ccccc3Cl)CC2)ccn(CC2CC2)c1=O = 34
• CC(C)CCn1ccc(N2CCCC(c3ccccc3)C2)c(C#N)c1=O (stereo unspecified) = 98
• O=c1c(C(F)(F)F)c(N2CCC(c3ccccc3)CC2)ccn1CC1CC1 = 89
• CC(C)CCn1ccc(N2CCN(Cc3ccccc3)CC2)c(C#N)c1=O = 85
• CC(C)CCn1ccc(-c2ccccc2)c(C#N)c1=O = 100
• N#Cc1c(N2CCC(c3ccc(F)cc3F)CC2)ccn(CC2CC2)c1=O = 34
• CC(C)Cn1ccc(N2CCC(c3ccccc3)CC2)c(Cl)c1=O = 31
• COc1ccccc1C1CCN(c2ccn(CC3CC3)c(=O)c2C#N)CC1 = 68
• CC(C)CCn1ccc(N2CCc3ccccc3C2)c(C#N)c1=O = 100

1: O=c1c(Cl)c(N2CCC(c3ccccc3)CC2)ccn1CC1CC1
2: N#Cc1c(N2CCC(c3cc(F)cc(F)c3)CC2)ccn(CC2CC2)c1=O
Ask | Choose between 1 and 2 : whose measured metabolised at 0.25 h, 5 µM value is numerically larger? Respond using the label that marks the chosen record.
Reply | 2
(2: 45%, 1: 30%)

###

- ASSAY: Oral bioavailability in dog at 2.5 mg/kg
- Format: ADME, organism-based, Canis lupus familiaris
- CONDITION_LABEL: in vivo
QUANTITY_KIND: bioavailability (%)
Use % as the unit, but write only the number.

Ask | Output measured bioavailability for this item: CCCCn1ccc(N2CCC(c3ccccc3)CC2)c(Cl)c1=O
Reply | 20

###

- ASSAY: Apparent permeability from basolateral to apical side in human Caco2 cells
- Assay type: ADME, cell-based
- CONDITION_LABEL: Caco-2
QUANTITY_KIND: Papp B→A (×10⁻⁶ cm/s)
Output spec: scalar in ×10⁻⁶ cm/s, unitless text.

Ask | Answer with the recorded Papp B→A for the compound listed here: CCCCn1ccc(N2CCC(c3ccccc3)CC2)c(Cl)c1=O
Reply | 6

###

- ASSAY: Cmax in Sprague-Dawley rat at 10 mg/kg, po
- Assay type: ADME, organism-based
- Design: dose 10 mg/kg, route oral
- CONDITION_LABEL: in vivo
QUANTITY_KIND: Cmax (ng/mL)

• O=c1c(Cl)c(N2CCC(c3ccccc3)CC2)ccn1CC1CC1 = 986
• N#Cc1c(N2CCC(c3ccccc3)CC2)ccn(CC2CC2)c1=O = 1410

a: CC(C)Cn1ccc(N2CCC(c3ccccc3)CC2)c(Cl)c1=O
b: CCCCn1ccc(N2CCC(c3ccccc3)CC2)c(Cl)c1=O
Ask | Looking at a and b , which one comes out lower in Cmax terms? Label of pick, please.
Reply | b
(b: 938 ng/mL, a: 1360 ng/mL)

###

- SYSTEM_NAME: Metabotropic glutamate receptor 2 (Homo sapiens)
- Sequence (Q14416 whole entry): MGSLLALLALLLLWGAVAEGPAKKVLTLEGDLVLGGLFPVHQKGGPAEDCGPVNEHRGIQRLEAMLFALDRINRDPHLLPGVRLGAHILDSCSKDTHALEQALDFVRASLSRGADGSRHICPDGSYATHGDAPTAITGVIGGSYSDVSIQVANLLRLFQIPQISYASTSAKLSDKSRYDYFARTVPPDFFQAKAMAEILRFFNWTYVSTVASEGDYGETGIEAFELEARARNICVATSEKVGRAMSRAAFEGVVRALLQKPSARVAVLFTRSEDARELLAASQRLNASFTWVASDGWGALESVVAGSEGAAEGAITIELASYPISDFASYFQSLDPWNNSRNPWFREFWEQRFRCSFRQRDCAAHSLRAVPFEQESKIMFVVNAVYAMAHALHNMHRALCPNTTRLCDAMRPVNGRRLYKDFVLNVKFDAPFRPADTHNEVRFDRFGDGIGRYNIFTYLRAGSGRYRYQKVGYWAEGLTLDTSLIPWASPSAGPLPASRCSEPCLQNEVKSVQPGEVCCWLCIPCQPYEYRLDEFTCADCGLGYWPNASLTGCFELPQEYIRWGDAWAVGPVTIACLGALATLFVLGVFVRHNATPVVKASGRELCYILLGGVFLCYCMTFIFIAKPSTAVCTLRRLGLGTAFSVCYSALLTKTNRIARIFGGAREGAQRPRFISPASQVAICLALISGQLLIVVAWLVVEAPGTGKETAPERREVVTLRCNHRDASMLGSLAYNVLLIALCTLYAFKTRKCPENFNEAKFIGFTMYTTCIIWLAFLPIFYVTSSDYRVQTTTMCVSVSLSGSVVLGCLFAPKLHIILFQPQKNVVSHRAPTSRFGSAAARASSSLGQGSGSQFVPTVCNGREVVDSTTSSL
- ASSAY: Positive allosteric modulation of human mGlu2 receptor expressed in CHO cells assessed as potentiation of glutamate-induced effect incubated for 30 mins prior to [35S]GTPgamma addition measured after 30 mins
QUANTITY_KIND: EC50 (µM)

Reference set (3 entries):
- N#Cc1c(N2CCC(c3cc(F)cc(F)c3)CC2)ccn(CC2CC2)c1=O: 0.151
- COc1ccccc1C1CCN(c2ccn(CC3CC3)c(=O)c2C#N)CC1: 0.035
- N#Cc1c(N2CCC(c3c(F)cccc3F)CC2)ccn(CC2CC2)c1=O: 0.031

P: N#Cc1c(N2CCC(c3ccc(F)cc3F)CC2)ccn(CC2CC2)c1=O
Q: CC(C)CCn1ccc(N2CCc3ccccc3C2)c(C#N)c1=O
Ask | Between these two entries, P and Q , state which has the higher EC50. Give the label of your selection.
Reply | Q
